Hey, just so you know, these numbers are from ChEMBL document CHEMBL3861950.

# System Name: Tyrosine-protein phosphatase non-receptor type 11 (Homo sapiens, UniProt Q06124)
# Sequence (Q06124 whole entry): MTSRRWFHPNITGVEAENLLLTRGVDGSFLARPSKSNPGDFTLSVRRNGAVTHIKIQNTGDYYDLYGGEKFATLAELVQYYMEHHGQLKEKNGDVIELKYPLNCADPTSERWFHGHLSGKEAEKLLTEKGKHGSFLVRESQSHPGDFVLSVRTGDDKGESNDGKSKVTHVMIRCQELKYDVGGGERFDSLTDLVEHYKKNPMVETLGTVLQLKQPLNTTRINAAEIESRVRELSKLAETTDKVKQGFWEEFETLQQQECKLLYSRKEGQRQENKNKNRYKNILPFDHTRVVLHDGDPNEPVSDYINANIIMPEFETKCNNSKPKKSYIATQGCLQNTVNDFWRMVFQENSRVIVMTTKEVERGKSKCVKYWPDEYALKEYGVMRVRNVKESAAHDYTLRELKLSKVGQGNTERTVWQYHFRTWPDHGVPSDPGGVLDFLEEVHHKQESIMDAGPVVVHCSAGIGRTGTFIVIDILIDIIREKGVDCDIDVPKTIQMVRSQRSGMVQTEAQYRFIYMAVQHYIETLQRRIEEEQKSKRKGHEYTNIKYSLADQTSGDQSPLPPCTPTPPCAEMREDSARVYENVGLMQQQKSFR
# Method: Inhibition of recombinant SHP2 (unknown origin) using pNPP as substrate by spectrophotometric method
Decide using IC50 alone. Strictly below 20 µM: label 1. Equal to or above 20 µM: label 0.

O=C(COc1ccc2cc(C(O)(C(F)(F)F)C(F)(F)F)c(O)cc2c1)NCCc1ccc(Cl)cc1Cl
label 1
Oc1cc2ccccc2cc1C(O)(C(F)(F)F)C(F)(F)F
label 0
O=C(COc1ccc2cc(C(O)(C(F)(F)F)C(F)(F)F)c(O)cc2c1)NC1CC1
label 0

Enquiry: Dear colleague, could you confirm whether IC50 of CC(C)c1ccc(NC(=O)COc2ccc3cc(C(O)(C(F)(F)F)C(F)(F)F)c(O)cc3c2)cc1 falls below 20 µM? Thanks.
Return: label 1

Enquiry: Dear colleague, could you confirm whether IC50 of O=C(COc1ccc2cc(C(O)(C(F)(F)F)C(F)(F)F)c(O)cc2c1)Nc1ccccc1 falls below 20 µM? Thanks.
Return: label 1

Enquiry: Dear colleague, could you confirm whether IC50 of O=C(COc1ccc2cc(C(O)(C(F)(F)F)C(F)(F)F)c(O)cc2c1)Nc1ccc(N2CCOCC2)cc1 falls below 20 µM? Thanks.
Return: label 0

Enquiry: Dear colleague, could you confirm whether IC50 of O=C(COc1ccc2cc(C(O)(C(F)(F)F)C(F)(F)F)c(O)cc2c1)NCc1ccccc1 falls below 20 µM? Thanks.
Return: label 0
